- test target: T1, CD70 on cells (CHO-CD70, JVM-3, U266, Raji, THP-1, T cells) (human, UniProt P32970 1-193)
- T1 construct: whole, on cells; also called cell-surface CD70
- T1 sequence (looked up): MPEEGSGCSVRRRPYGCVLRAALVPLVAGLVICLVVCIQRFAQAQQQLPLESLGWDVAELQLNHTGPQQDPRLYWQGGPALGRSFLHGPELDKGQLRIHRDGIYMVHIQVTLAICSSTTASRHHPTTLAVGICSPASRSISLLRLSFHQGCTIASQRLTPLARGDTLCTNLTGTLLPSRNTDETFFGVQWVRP
- protocol description: 1.25 µg/mL scFv on JVM-3 cells
Binary classification by cell binding, with 5000 as an inclusive lower bound for y; all other cases are n.

binder="61-TC7-IV-H08 (scFv, His-tagged) scFv: QMQLVQSGGGLVQPGRSLRLSCAASGFTFDDYAMHWVRQAPGKGLEWVAVISYDGSNKYYADSVKGRFTISRDNSKNTLYLQMNSLRAEDTAVYYCARSSYDFWSGYPKDMDVWGKGTTVTVSSGGSGGSGGSGGSSSELTQDPAVSVALGQTVRITCQGDSLRSYYASWYQQKPGQAPVLVIYGKNNRPSGIPDRFSGSSSGNTASLTITGAQAEDEADYYCNSRDSSGNHLVVFGGGTKLTVL" category=n
binder="13-TC7-I-E11 (scFv, His-tagged) scFv: QVQLQQWGAGLLKPSETLSLTCAVYGGSFSGYYWSWIRQPPGKGLEWIGEINHSGSTNYNPSLKSRVTISVDTSKNQFSLKLSSVTAADTAVYYCARSRRPYWYFDLWGRGTLVTVSSGGSGGSGGSGGSQSVLTQPPSVSGAPGQRVTISCTGSSSNIGAGYDVHWYQQLPGTAPKLLIYGDSNRPSGVPDRFSGSGSGTSASLAITGLQAEDEGDYYCQSFDSNLSRYVFGAGTKLTVL" category=y
binder="50-TC7-III-A11 (scFv, His-tagged; also called 1985) scFv: QVQLVQSGAEVKRPGASVKVSCKASGYTFTSYYMHWVRQAPGQGLEWMGIINPSGGSTSYAQKFQGRVTMTRDTSTSTVYMELSSLRSEDTAVYYCAIEPGYCSGGSCYPDAFDIWGQGTTVTVSSGGSGGSGGSGGSQSVLTQPPSASGTPGQRVTISCSGSSSNIGSDYVYWYQRVPGTAPKLLIYRDNQRPSGVPDRFSGSKSGTSASLAISGLRSDDEADYYCAAWDDSLSGWVFGGGTKVTVL" category=y
binder="37-TC7-VII-D05 (scFv, His-tagged) scFv: QMQLVQSGGGVVQPGRSLRLSCAASGFTFSSYAMHWVRQAPGKGLEWVAVISYDGSNKYYADSVKGRFTISRDNSKNTLYLQMNSLRAEDTAVYYCARDALWDTATFDYWGQGTLVTVSSGGSGGSGGSGGSSSELTQDPAVSVALGQTVRITCQGDSLRSYYASWYQQKPGQAPVLVIYGKNNRPSGIPDRFSGSSSGNTASLTITGAQAEDEADYYCNSRDSSGNPWVFGGGTKLTVL" category=y
binder="13-TC7-V-H10 (scFv, His-tagged) scFv: QVQLQQWGAGLLKPSETLSLTCAVYGGSFSGYYWSWIRQPPGKGLEWIGEINHSGSTNYNPSLKSRVTISVDTSKNQFSLKLSSVTAADTAVYYCARSRRPYWYFDLWGRGTLVTVSSGGSGGSGGSGGSQSALTQPASVSGSPGQSITISCTGTSSDVGGYNSVSWYRQHPGKAPKLMIYDVTNRPSGVSNRFSGSKSGNTASLTISGLQAEDEADYYCSSSSISATWVFGGGTKLTVL" category=y
binder="49-TC4-XVI-F01 (scFv, His-tagged) scFv: QVQLVESGGGVVQPGRSLRLSCAASGFTFSSYAMHWVRQAPGKGLEWVAVISYDGSNKYYADSVKGRFTISRDNSKNTLYLQMNSLRAEDTAVYYCARDSTQDYGMDVWGQGTMVTVSSGGSGGSGGSGGSSSELTQDPAVSVALGQTVRITCQGDSLRNYYASWYQQKPGQAPVLVFYGKNNRPSGIPDRFSGSSSGNTASLTITGAQAEDEADYYCNSRDSSGNHLVVFGGGTKLTVL" category=y
binder="32-TC1.2-I-F07-6 (scFv, His-tagged) scFv: QVQLVQSGAEVKKPGESLKISCKGSGYSFTSYWIGWVRQMPGKGLEWMGIIYPGESDTRYSPSFQGQVTISADKSISTAYLQWSSLKASDTAMYYCARRNYYDRSGYVDAFDIWGQGTMVTVSSGGSGGSGGSGGSSSELTQDPAVSVALGQTVRITCQGDSLRRFYASWHQQKPGQAPIVVMYAENNRPSGIPDRFSGSSSGNTASLTITGAQAEDEATYYCNSRDSSGNRHVFGTGTKLTVL" category=y
binder="38-TC7-V-G06 (scFv, His-tagged) scFv: QMQLVQSGAEVKKPGSSVKVSCKASGGTFSSYAISWVRQAPGQGLEWMGWISAYNGNTNYAQKLQGRVTMTTDTSTSTAYMELRSLRSDDTAVYYCARDDYWGQGTLVTVSSGGSGGSGGSGGSSYELTQPPSVSVAPGKTARITCSGDVLGENYADWYQQKPGQAPELVIYEDSERYPGIPERFSGSTSGNTTTLTISRVLTEDEADYYCLSGDEDNRVFGGGTKLTVL" category=y
binder="56-TC7-VI-H08 (scFv, His-tagged) scFv: QMQLVQSGAEVKKPGASVKVSCKASGYTFTSYYMHWVRQAPGQGLEWMGIINPSGGSTSYAQKFQGRVTMTRDTSTSTAYMELRSLRSDDTAVYYCARGWETNDAFDIWGQGTMVTVSSGGSGGSGGSGGSQSVLTQPPSVSGAPGQKVTISCSGSNSNVGNHYLSWYQHLPGTAPRLLIFDNNKRPSGIPDRFSGSKSGASATLDITGLQTGDEADYFCGTWDSRLNVWVFGGGTKLTVL" category=n
binder="14-TC6-I-F03 (scFv, His-tagged) scFv: QVQLVQSGAEVKKPGASVKVSCKASGYTFTGYYMNWVRQAPGQGLEWMAWINPNTGDTNYAQKFQGRVTMTRDTSINTAYIELSRLTSDDTAVYYCARVGDYYDRSGYYRHDAFDIWGQGTMVTVSSGGSGGSGGSGGSSSELTQDPAVSVALGQTVRITCQGDSLRSYYASWYQQKPGQAPVLVIYGKNNRPSGIPDRFSGSNSGNTATLTISGTQAMDEADYYCQAWDSSTVFGGGTKVTVL" category=n
binder="14-TC4-III-A04 (scFv, His-tagged) scFv: QVQLVQSGAEVKKPGASVKVSCKASGYTFTGYYMNWVRQAPGQGLEWMAWINPNTGDTNYAQKFQGRVTMTRDTSINTAYIELSRLTSDDTAVYYCARVGDYYDRSGYYRHDAFDIWGQGTMVTVSSGGSGGSGGSGGSSSELTQDPAVSVALGQTVRITCQGDSLRSYYASWYQQKPGQAPVLVIYGKNNRPSGIPDRFSGSSSGNTASLTITGAQAEDEADYYCQAWDSSTGVFGGGTKVTVL" category=y
